Quick list: IC50 (µg/ml) with constrains per entry.
molecular target: HIV Env of isolate BJOX028000.10.3 (clade AE) (HIV); assay: cell-based or functional assay
Report only the number, with the unit µg/mL understood.

ePGDM13 (antibody, V domains shown) VH: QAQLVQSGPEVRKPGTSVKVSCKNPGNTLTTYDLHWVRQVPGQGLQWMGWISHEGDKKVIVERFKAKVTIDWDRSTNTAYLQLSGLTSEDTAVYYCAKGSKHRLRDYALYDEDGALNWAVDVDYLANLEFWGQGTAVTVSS VL: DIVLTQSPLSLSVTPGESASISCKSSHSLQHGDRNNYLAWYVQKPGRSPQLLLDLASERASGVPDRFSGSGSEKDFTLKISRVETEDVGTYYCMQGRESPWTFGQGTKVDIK
0.035
ePGDM9 (antibody, V domains shown) VH: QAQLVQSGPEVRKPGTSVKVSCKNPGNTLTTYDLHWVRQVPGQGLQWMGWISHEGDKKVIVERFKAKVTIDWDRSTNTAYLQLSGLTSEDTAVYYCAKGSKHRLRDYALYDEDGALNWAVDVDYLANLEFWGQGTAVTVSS VL: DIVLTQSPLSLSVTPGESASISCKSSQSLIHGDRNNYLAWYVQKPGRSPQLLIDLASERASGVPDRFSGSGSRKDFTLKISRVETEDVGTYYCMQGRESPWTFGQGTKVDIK
0.019
PGDM1400 (antibody, V domains shown) VH: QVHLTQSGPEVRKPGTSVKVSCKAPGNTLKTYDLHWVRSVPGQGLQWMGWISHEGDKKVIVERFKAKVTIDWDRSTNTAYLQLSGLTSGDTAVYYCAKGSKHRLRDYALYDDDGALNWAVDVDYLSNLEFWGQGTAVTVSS VL: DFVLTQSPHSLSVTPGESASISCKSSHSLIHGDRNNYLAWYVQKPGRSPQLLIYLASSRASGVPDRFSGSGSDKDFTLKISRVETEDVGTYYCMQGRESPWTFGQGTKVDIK
0.121

Now look at this entry.
Specify IC50 (µg/ml) with constrains for ePGDM5 (antibody, V domains shown) VH: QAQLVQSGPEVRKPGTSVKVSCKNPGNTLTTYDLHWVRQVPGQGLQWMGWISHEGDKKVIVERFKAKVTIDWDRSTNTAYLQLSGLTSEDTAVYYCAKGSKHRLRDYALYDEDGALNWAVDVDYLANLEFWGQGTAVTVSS VL: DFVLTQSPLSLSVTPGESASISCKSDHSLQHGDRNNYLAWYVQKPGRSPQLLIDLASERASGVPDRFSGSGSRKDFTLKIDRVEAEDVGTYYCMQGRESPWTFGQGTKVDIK and stop.
0.021

Where do these numbers come from? They come from patent US20230134571A1.
